- Test system: SN12C renal
- assay.details: NCI-60 one-dose screen, 48 h (100 = growth as untreated, 0 = no growth, -100 = all killed)
- particulars: 10 µM
Compounds without any hit were thinned out: in the full panel of roughly 83,000, 20% have a hit.
Kindly supply the reported growth values for the records listed here.
Numbers only, in %.

I have 7 molecules here; please give me growth for each one.
1. COC1OC2COC(c3ccccc3)OC2C(=O)C1NC(=O)c1ccccc1 (configuration not stated)
2. C=CCNC(=S)NN
3. CC1(C)CC(OCCCC[P+](c2ccccc2)(c2ccccc2)c2ccccc2)CC(C)(C)N1O
4. Nc1ccc(Sc2ccc3c4c2cccc4c(=O)n2c4ccccc4nc32)cc1
5. Cc1ncc([N+](=O)[O-])n1CCOc1ccc(C(=O)/C=C/c2ccc(C(F)(F)F)cc2)cc1
6. COc1ccc(Nc2nc(NCc3ccccc3)c3ccccc3n2)cc1
7. CCCCCC(=O)N1c2ccccc2NC2=C(C(=O)CC(c3ccc(OC)c(OC)c3)C2)C1c1ccc(C(F)(F)F)cc1 (configuration not stated)

1. 96.7
2. 81.7
3. 4.65
4. 19.2
5. 77.9
6. 69.5
7. 62

Record growth for all entries; do not skip any.
1. Cc1ccccc1C1=N[C@@H](Cc2ccccc2)C(=O)c2c(nc3ccccn23)N1
2. CCN(CC)CC(O)CNc1ccnc2cc(Cl)c(Cl)cc12 (configuration not stated)
3. CCN1CCOC1C(C)C (configuration not stated)
4. COc1ccccc1Cn1cc2c(c1-c1ccccc1)CCc1cnoc1-2

107
79
99.8
50.2

Your task in this section: give growth for each listed record.
1. CCOC(=O)c1c(O)c2cc(-c3ccccc3)nc(OCC)c2c(=O)n1C
2. COc1cc(Nc2ccnc(N3CCN(c4ccnc5cc(Cl)ccc45)CC3)n2)cc(OC)c1
3. CCCCCCOc1ccc(/C=C/C(=O)c2ccc(B(O)O)cc2)cc1
4. Cc1cc(Nc2cccc(F)c2)nc(NCc2ccccc2)n1
5. Cc1ccc(S(=O)(=O)N2CCc3ccccc3CC2)cc1
6. CCCCCCCCCCCCCC[n+]1ccc(C)cc1

98.7
19
71.4
16.7
85.3
-2.55

###

- System: A498 renal
- assay.details: NCI-60 one-dose screen, 48 h
- particulars: 10 µM
This is part of a sample that, as a whole, favours compounds with a hit. Of some 83,000 tested, about 20% had one in any assay. The source made the active and inactive calls. How the source made its calls: active means growth percent below 10; inactive means the rest.
Response enum: active, inactive

These recorded examples may help you get a feel for the data.
> print(dat)
                                   compound  tested.target     class
1  O=C(Nc1cccc(-c2nc3ccccc3[nH]2)c1)c1cccc(NC(=O)c2ccco2)c1     A498 renal  inactive
2  COc1cc(-c2n/c(=C\c3c(O)[nH]c4ccccc34)cc3c2=Nc2ccccc2-3)cc(OC)c1OC     A498 renal    active
3  COC(=O)CCCCCCCCC(C)c1ccc(C(C)=O)cc1 (stereo not given)     A498 renal  inactive
4  O=[N+]([O-])c1ccc(-c2nc(-c3ccccc3)c(-c3ccccc3)n2-c2ccccc2)cc1     A498 renal  inactive

Which outcome did this test record for the compound O=C(Nc1ccc(OCc2nnc(-c3ccccc3)o2)c(F)c1)Nc1ccc(Cl)c(Cl)c1 ? inactive

###

- Test system: KM12 colon
- assay.details: NCI-60 one-dose screen, 48 h (100 = growth as untreated, 0 = no growth, -100 = all killed)
- particulars: 10 µM
About 83,000 compounds went through this panel and 20% of them were active in at least one assay; those are over-represented in the sample as a whole.
Could you please report measured growth for the items listed next?
Numbers only, in %.

> print(dat)
                                    compound  tested.target  property.label  measured.result
 1  Nc1ncc(-c2ccc(C(F)(F)F)cc2)c(NC2CCCCCC2)n1     KM12 colon          growth             31.6
 2  Nc1c(CNCc2nnn(Cc3ccccc3)c2N)nnn1Cc1ccccc1     KM12 colon          growth             98.3
 3                     Cc1ccc(C(=O)O)c(N)c1C     KM12 colon          growth               95
 4  NC(N)=NS(=O)(=O)c1ccc(Nc2ccc3nnc(-c4ccncc4)n3n2)cc1     KM12 colon          growth              100
 5    CC(=O)Nc1nc(C)c(C(=O)N/N=C/c2cccn2C)s1     KM12 colon          growth              105
 6     CCOCC[P+](c1ccccc1)(c1ccccc1)c1ccccc1     KM12 colon          growth             25.8
 7  O=NN(CCCl)C(=O)Nc1ccc(NC(=O)N(CCCl)N=O)cc1     KM12 colon          growth              103
 8  Oc1[nH]c2ccccc2c1/C=c1/cc2c(c(-c3ccc(C(F)(F)F)cc3)n1)=Nc1ccccc1-2     KM12 colon          growth             36.2
 9  CCN(CC)CCOC(=O)c1ccc(NC(=O)Nc2cccc(Cl)c2)cc1     KM12 colon          growth               98
10  O=C(N/N=c1/ccoc2cccnc12)N1CCN(c2ncccn2)CC1     KM12 colon          growth             24.7

Give growth for each of the items listed below.
1. COc1ccc(Nc2ccnc(N3CCN(c4ccnc5cc(Cl)ccc45)CC3)n2)cc1
2. CCCCCCN=C(N)CCCCCCCCCCC(N)=NCCCCCC
3. Cc1ccc(C2C=C(c3ccc(Cl)cc3)N=C3SC=CN32)c(Br)c1 (stereo not drawn)
4. CCOC(=O)CNC(=O)Nc1ccc(Oc2ccc(NC(=O)NCC(=O)OCC)cc2)cc1
5. CCCCCC(CCC)COC(=O)c1ccc(OC)cc1 (stereo not drawn)
6. Cc1nc2cc(-n3c(-c4ccc(F)cc4)nc4ccccc4c3=O)ccc2n1Cc1ccccc1

[2.49, 34.8, 78.5, 105, 109, 18.7]

Record growth for all entries; do not skip any.
1. COc1ccc2nc(C)cc(Nc3ccc(Cl)cc3)c2c1
2. CCOC(=O)c1cc2c(n1Cc1ccccc1)-c1oncc1CC2
3. COc1ccc(Nc2nc(NCc3ccccc3)c3ccccc3n2)cc1
4. O=[N+]([O-])c1ccc(Br)o1
5. CC1(CO)CCCC12OCCO2 (stereo not drawn)
6. CCCCCc1cc[n+](CC(=O)c2ccc(Cl)cc2)cc1
7. COc1ccc(/C=C2\SC(=S)N(CCCN3CCOCC3)C2=O)c(OC)c1

[107, 31.4, 80.7, 99.1, 112, 73.4, 97.2]
